- Test system: Sphingosine kinase 2 (Homo sapiens)
- Sequence (Q9NRA0 whole entry): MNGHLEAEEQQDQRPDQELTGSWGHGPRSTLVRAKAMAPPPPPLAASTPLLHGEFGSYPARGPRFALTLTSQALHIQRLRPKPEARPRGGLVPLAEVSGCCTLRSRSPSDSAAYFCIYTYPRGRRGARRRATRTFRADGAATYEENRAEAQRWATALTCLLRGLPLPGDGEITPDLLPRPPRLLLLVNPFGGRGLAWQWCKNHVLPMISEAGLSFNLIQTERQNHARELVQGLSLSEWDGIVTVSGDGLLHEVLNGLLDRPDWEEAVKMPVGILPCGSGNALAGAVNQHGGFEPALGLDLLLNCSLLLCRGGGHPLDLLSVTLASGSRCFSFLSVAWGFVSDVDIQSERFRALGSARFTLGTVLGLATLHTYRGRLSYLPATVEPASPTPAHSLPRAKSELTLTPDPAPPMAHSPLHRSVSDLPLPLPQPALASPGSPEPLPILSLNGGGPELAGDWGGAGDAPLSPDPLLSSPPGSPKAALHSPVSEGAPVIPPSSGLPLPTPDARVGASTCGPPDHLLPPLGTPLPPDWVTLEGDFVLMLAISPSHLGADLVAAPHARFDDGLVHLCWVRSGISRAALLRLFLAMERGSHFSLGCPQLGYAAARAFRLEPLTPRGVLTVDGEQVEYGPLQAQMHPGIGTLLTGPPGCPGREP
- Protocol: Inhibition of SphK2 (unknown origin)
Measurement type: pIC50
Kindly note that pIC50 refers to -log10 of the concentration in mol/L and answer with the value alone.

[in] Notebook entry, Sphingosine kinase 2 (Homo sapiens) assay: pIC50 of CCCCCCCCCCCCCC[C@@H]1OC[C@H](N)[C@@H]1O = ?
[out] 5.18
